- Assay target: RIPK1 (Homo sapiens (Human))
- Sequence (Q13546 whole entry, species assumed): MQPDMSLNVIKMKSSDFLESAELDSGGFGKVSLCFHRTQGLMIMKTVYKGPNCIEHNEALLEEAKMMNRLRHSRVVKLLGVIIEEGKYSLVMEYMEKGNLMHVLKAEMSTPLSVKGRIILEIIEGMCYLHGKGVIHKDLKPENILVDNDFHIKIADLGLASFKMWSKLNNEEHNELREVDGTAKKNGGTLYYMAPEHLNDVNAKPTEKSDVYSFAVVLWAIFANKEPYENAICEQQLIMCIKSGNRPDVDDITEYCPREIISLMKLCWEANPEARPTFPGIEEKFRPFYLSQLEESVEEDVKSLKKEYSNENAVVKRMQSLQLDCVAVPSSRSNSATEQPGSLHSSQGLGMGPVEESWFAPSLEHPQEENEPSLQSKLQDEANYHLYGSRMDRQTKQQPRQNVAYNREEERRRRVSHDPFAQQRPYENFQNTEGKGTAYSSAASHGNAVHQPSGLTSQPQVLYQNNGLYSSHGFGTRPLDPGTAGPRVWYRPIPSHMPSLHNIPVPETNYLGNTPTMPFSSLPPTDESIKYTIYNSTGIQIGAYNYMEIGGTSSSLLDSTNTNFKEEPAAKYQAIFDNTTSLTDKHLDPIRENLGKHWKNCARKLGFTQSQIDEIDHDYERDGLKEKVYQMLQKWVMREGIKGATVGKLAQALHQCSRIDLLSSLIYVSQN
- Assay notes: RIPK1 ADP-Glo biochemical kinase assay
- Condition description: read-out: RIPK1 ADP-Glo Kinase (IC50)
- Method: The final reaction volume was 5.0ul. Adding 5 μl of ADP-Glo™ terminated the reaction.
pIC50: −log10 of the molar value.
Listed here: items and their measured pIC50.
Experimental readout: pIC50

Structure as smiles: CN1C(=O)[C@@H](NC(=O)c2n[nH]c(Cc3ccccc3)n2)COc2ccc(C#CCCCO)cc21
Assay target: RIPK1 (Homo sapiens (Human))
Experimental readout: pIC50
Result: 7.65
//
Structure as smiles: CN1C(=O)[C@@H](NC(=O)n2cc(Cc3ccc(F)cc3)cn2)COc2ccc(C#CC(C)(C)O)cc21
Assay target: RIPK1 (Homo sapiens (Human))
Experimental readout: pIC50
Result: 7.61
//
Structure as smiles: CN1C(=O)[C@@H](NC(=O)c2n[nH]c(Cc3ccccc3)n2)COc2ccc(CCC(N)=O)cc21
Assay target: RIPK1 (Homo sapiens (Human))
Experimental readout: pIC50
Result: 7.48
//
Structure as smiles: CN1C(=O)[C@@H](NC(=O)c2ncn(Cc3ccccc3)n2)COc2ccc(CN3CCn4ncnc4C3)cc21
Assay target: RIPK1 (Homo sapiens (Human))
Experimental readout: pIC50
Result: 7.29
//
Structure as smiles: CN1C(=O)[C@@H](NC(=O)c2ncn(Cc3ccccc3)n2)COc2ccc(C#CC3(O)CCC3)cc21
Assay target: RIPK1 (Homo sapiens (Human))
Experimental readout: pIC50
Result: 7.63
//
Structure as smiles: CN1C(=O)[C@@H](NC(=O)c2cc(Oc3ccccc3)ccn2)COc2ccc(C#CCN3CCOCC3)cc21
Assay target: RIPK1 (Homo sapiens (Human))
Experimental readout: pIC50
Result: 7.50
//
Structure as smiles: CN1C(=O)[C@@H](NC(=O)c2cc(OC3CCC3)ccn2)COc2ccc(C#CC3(O)COC3)cc21
Assay target: RIPK1 (Homo sapiens (Human))
Experimental readout: pIC50
Result: 7.49
